- Study Target: human GPR39 receptor (Homo sapiens, UniProt O43194)
- Construct: PC3 Cells, Expressing the Endogenous Human GPR39 Receptor; endogenous in cells
- Sequence (O43194 1-453): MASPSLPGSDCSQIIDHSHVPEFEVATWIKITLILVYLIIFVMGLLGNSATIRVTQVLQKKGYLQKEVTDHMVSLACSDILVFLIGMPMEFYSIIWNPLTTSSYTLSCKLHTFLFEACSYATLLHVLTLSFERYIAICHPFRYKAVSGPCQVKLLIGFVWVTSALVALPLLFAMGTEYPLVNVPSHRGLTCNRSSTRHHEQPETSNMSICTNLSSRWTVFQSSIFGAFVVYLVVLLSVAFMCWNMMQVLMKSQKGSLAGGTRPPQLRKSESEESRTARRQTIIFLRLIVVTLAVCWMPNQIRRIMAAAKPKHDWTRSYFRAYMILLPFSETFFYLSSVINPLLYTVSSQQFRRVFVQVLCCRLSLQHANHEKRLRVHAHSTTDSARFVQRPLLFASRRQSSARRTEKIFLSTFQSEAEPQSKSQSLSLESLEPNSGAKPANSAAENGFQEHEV
- Measurement Notes: Measurement of intracellular calcium response in PC3 cells (FLIPR), antagonism of the C3 agonist response
- Recorded Conditions: functional pKi (modified Cheng-Prusoff), inhibition of the C3 (TC-G 1008) response at EC90, 30 μM ZnCl2, read-out: fpKi activity
Observable: Ki

O=C(Nc1ccc(C(=O)N2CCC3(CC2)COC3)c(N2CCC(C(F)(F)F)C2)c1)C1CC1 (single isomer, unassigned) [Example 213a] :: ≤ 50.1 nM

## Input # get_value(readout='Ki', item= O=C(Nc1ccc(C(=O)N2CCS(=O)(=O)CC2)c(N2CCOC(C(F)(F)F)C2)c1)C1CC1 (racemic) )
## Output 316 to 1000 nM

###

- Study Target: human GPR39 receptor (Homo sapiens)
- Construct: PC3 Cells, Expressing the Endogenous Human GPR39 Receptor; endogenous in cells
- Sequence (O43194 1-453): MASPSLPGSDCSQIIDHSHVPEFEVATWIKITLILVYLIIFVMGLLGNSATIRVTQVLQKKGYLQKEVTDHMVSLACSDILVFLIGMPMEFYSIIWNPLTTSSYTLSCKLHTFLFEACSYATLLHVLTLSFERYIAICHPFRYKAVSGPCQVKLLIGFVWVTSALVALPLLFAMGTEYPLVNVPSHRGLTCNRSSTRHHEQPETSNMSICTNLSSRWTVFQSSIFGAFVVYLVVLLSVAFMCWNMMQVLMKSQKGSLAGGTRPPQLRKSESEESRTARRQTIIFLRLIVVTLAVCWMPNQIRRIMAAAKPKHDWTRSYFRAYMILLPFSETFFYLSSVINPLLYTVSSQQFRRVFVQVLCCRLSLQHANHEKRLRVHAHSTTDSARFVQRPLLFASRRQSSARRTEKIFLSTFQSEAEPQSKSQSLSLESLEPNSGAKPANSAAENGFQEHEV
- Measurement Notes: Measurement of intracellular calcium response in PC3 cells (FLIPR), antagonism of the C3 agonist response
- Recorded Conditions: functional pKi (modified Cheng-Prusoff), inhibition of the C3 (TC-G 1008) response at EC90, 30 μM ZnCl2, read-out: fpKi activity
pKi: −log10 of the molar value.
Overview of reported pKi across a group of compounds:

CCCN1CCN(C(=O)c2ccc(NC(=O)C3CC3)cc2N2CCC(C)(C)CC2)CC1 :: 6.60 to 7.20
CS(=O)(=O)C1CCN(C(=O)c2ccc(NC(=O)C3CC3)cc2N2CCCC2)CC1 :: 5.20 to 5.90

Let us move to another entry and its pKi.
## Input Dear colleague, I am looking for the recorded pKi of the following compound: "CCCN1CCN(C(=O)c2ccc(NC(N)=O)cc2N2CCCCCC2)CC1"
## Output 5.20 to 5.90
